IC50: recorded values
molecular target: MTHFD1 recombinant human enzyme (Homo sapiens, UniProt P11586); experiment: MTHFD1 inhibition assay (NAD(P)H-Glo luminescence); settings: MTHFD1 IC50, recombinant human enzyme 200 nM, NADP, band
Sequence (P11586 2-291 limits assumed): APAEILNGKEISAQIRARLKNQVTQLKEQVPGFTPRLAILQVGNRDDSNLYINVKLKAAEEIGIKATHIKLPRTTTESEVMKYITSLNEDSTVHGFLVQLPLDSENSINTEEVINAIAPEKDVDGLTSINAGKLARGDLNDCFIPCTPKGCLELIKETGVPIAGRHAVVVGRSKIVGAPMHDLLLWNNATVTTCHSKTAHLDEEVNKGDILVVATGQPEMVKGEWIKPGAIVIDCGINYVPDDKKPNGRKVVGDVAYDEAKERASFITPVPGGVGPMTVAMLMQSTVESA

Solved entries (count: 3):
{"columns": ["Compound", "Assayed Target", "IC50"],
 "data": [
  ["COC[C@H]1CN(c2cc(C)c3c4c(c(=O)oc3c2C)CN(C(=O)c2ccc(C(=O)NS(=O)(=O)N(C)C)c(N3CCC[C@@H]3C)c2)CC4)CCN1C", "MTHFD1 recombinant human enzyme (Homo sapiens, UniProt P11586)", "1 to 10 nM"],
  ["COC[C@H]1CN(c2ccc3c4c(c(=O)oc3c2C)CN(C(=O)c2cc(OC3CCC3)c(C(=O)NS(=O)(=O)N3CCCC3)c(C(F)(F)F)c2)CC4)CCN1C", "MTHFD1 recombinant human enzyme (Homo sapiens, UniProt P11586)", "100 to 1000 nM"],
  ["COC[C@H]1CN(c2cc(C)c3c4c(c(=O)oc3c2C)CN(C(=O)c2ccc(C(=O)NS(=O)(=O)N(C)C)c(N3CC5CC5C3)c2)CC4)CCN1C (some centres unmarked)", "MTHFD1 recombinant human enzyme (Homo sapiens, UniProt P11586)", "1 to 10 nM"]
]}

Now, please, on to the next compound.
Query: # get_value(readout='IC50', item= `COC[C@H]1CN(c2ccc3c4c(c(=O)oc3c2C)CN(C(=O)c2cc(F)c(C(=O)NS(=O)(=O)N(C)C)c(N3C5CCC3CC5)c2)CC4)CCN1C` )
Response: 1 to 10 nM
